Test system: Saccharomyces cerevisiae;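 also: PSI is a weighted mean of sequencing reads over stability bins, variants kept only with over 10 reads, mCherry proximal and sfGFP distal, peptide attached via GGGS linker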
experiment_notes: protein stability index of tFT-peptide fusion (C-terminal peptide) (PSI (0-1 scale)); higher = more stable (slower turnover)
setup_conditions: genetic background: wild type; temperature: 30 C
measured_quantity: protein stability index

>>> result_value("PPLPAPSPPAPP")
0.68
>>> result_value("IIRKQQAKKVEL")
0.681
>>> result_value("PFPSPPAPPPLP")
0.672
>>> result_value("ARGGTAVYKAAG")
0.668
>>> result_value("FPCGARPFPLAF")
0.704
>>> result_value("PSPPPPHPSALT")
0.648
>>> result_value("IVTGMGVVHIWR")
0.698
>>> result_value("EGIDFVDQRLLS")
0.663
>>> result_value("LISSTLRDQKDE")
0.701
>>> result_value("KNKENLNINNKR")
0.747
